Molecular target: BCDIN3D (Homo sapiens, UniProt Q7Z5W3)
Sequence (Q7Z5W3 whole entry): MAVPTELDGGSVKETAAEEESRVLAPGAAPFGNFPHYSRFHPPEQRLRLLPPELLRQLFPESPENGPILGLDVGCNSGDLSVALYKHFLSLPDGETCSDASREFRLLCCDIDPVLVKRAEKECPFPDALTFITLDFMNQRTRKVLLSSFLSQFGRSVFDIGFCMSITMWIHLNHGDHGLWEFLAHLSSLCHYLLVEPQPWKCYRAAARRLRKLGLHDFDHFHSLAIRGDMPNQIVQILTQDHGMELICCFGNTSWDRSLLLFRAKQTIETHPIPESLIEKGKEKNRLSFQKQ
Test: BCDIN3D IC50 RFMS (RapidFire) assay with mini-helix
Assay type: biochemical
Conditions: mini-helix 0.2 μM and SAM 6 μM as substrates, 25 nM enzyme, 1 hr at 37° C.
Label key: t means IC50 under 4 µM; f means IC50 of 4 µM or more.

Before answering, review these 3 worked examples.
Enquiry: IC50 under 4 µM? Item: "COc1ccc(-c2cccc(Nc3nc(NCCN)nc4c3cnn4C)c2)cc1"
Return: t

Enquiry: IC50 under 4 µM? Item: "Cc1ccc(CNc2nc(NC[C@@H](N)CF)nc3c2cnn3C)cc1Cl"
Return: f

Enquiry: IC50 under 4 µM? Item: "Cn1ncc2c(NC(C)(C)C)nc(NC[C@@H](N)c3ccc(F)c(F)c3)nc21"
Return: t

# next molecule below
Enquiry: IC50 under 4 µM? Item: "Cc1nn(C)c2nc(NCC(C)(C)N)cc(NCc3cccc(C(F)(F)F)c3)c12"
Return: f
